Target: Tryptophan 5-hydroxylase 1 (Homo sapiens, UniProt P17752)
Sequence (P17752 whole entry): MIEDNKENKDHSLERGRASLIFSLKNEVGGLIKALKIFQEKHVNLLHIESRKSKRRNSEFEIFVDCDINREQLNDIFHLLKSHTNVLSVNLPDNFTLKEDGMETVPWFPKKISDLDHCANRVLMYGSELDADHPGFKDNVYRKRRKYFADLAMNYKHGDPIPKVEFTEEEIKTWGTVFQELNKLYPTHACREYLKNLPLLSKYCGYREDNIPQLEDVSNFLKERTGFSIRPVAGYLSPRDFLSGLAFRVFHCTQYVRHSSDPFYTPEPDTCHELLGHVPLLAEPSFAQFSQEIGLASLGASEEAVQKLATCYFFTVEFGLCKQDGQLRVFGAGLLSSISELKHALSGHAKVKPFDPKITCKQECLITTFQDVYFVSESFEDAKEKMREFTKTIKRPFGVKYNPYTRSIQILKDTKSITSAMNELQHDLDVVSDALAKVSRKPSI
value.type: IC50 (nM)

CCn1c(=O)[nH]c(=O)c2c1nc(Cc1cn3ccsc3n1)n2Cc1ccccc1 | 1160

All values here come from ChEMBL document CHEMBL5365453.
